# Measurement target: Cytochrome P450 3A4 (Homo sapiens) (UniProt P08684)
# Sequence (P08684 whole entry, looked up): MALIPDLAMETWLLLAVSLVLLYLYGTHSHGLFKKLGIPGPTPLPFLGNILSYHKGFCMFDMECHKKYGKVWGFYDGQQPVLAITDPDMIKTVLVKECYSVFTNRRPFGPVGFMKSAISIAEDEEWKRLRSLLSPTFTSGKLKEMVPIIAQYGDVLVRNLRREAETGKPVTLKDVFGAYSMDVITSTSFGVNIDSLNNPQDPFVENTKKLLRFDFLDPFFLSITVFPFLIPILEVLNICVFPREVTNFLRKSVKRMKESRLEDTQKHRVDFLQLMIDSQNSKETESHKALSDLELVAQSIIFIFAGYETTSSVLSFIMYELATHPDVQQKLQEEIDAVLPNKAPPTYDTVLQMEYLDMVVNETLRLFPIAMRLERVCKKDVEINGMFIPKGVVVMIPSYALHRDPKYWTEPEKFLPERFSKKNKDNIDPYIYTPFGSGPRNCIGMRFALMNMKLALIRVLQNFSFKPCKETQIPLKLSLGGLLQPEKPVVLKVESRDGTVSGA
# Assay details: Cytochrome panel assay with activity outcomes
# Test parameters: recombinant CYP, pro-luciferin dealkylation, luminescence, p450-cyp3a4; series mostly up to 57.1 µM
In all, about 16,000 compounds went through this assay and about 5,100 (32%) were called active. Roughly 25% stayed inconclusive and do not appear here. The call rests on the fitted dose curve; in most records, active means well fitted curve in the direction sought with a large enough effect; inconclusive means small, poorly fitted or top-dose-only effect, or effect the other way; inactive means no such curve, though single readings can be large or run the other way. The list shows a part of the results.
One label from this list, please: active, inactive

Cc1ccc2nc(N3CCN(S(=O)(=O)c4ccc5c(c4)OCCO5)CC3)c(C#N)cc2c1 : active
Cc1[nH]c2ccccc2c1CCNC(=O)c1ccc2c(c1[N+](=O)[O-])C(=O)c1ccccc1C2=O : active
Cc1nnc(NC(=O)c2cccc(NC(=O)C(C)C)c2)s1 : inactive
CCOC(=O)c1c(C)n(C)c2ccc(OC(=O)c3ccco3)cc12 : active
Cc1ccc2c(c1)N(CC(=O)NC1CCCc3ccccc31)C(=O)CO2 (stereo not drawn) : active
Cc1[nH]n(-c2ccccc2)c(=O)c1CCOC(=O)c1ccc(C(F)(F)F)cc1 : active

Task: Hello, I am checking results. What call was entered for `O=C(Nc1ccccc1)[C@@]12C[C@@H]1/C(=N/O)c1ccccc1O2` ?
Output: inactive

Task: Hello, I am checking results. What call was entered for `CCc1n[nH]c(=S)n1/N=C/c1ccc2c(c1)OCO2` ?
Output: active

Task: Hello, I am checking results. What call was entered for `CN(C)C(=O)c1ccc(-c2cncnc2N2CCNCC2)cc1` ?
Output: inactive

Task: Hello, I am checking results. What call was entered for `CCn1c(SC)nnc1C1CCN(S(=O)(=O)c2ccc(OC)cc2)CC1` ?
Output: inactive

Task: Hello, I am checking results. What call was entered for `CSc1nc(C)c(CCOC(=O)c2cccc(C)c2)c(=O)[nH]1` ?
Output: inactive

Task: Hello, I am checking results. What call was entered for CCCCN1C(=O)C(NC(=O)c2cccnc2)(C(F)(F)F)C2=C1CC(C)(C)CC2=O (stereo not drawn) ?
Output: active

Task: Hello, I am checking results. What call was entered for `CSc1nc(C)c(CCOC(=O)c2ccccc2)c(=O)[nH]1` ?
Output: inactive

Task: Hello, I am checking results. What call was entered for `Cc1ccccc1/C=N\NC(=O)c1csnn1` ?
Output: inactive

Task: Hello, I am checking results. What call was entered for `CCn1c(=O)c2c(nc3n2CCS3)n(C)c1=O` ?
Output: inactive

Task: Hello, I am checking results. What call was entered for `CCn1c(SCC(=O)OC)nnc1C1CCCCC1` ?
Output: inactive

Task: Hello, I am checking results. What call was entered for `N#Cc1cccc(-c2ccc3ncnc(N4CCNCC4)c3c2)c1` ?
Output: active

Task: Hello, I am checking results. What call was entered for `CCN1CC=C2C(C#N)=C(N)C(C#N)(C#N)[C@H](c3ccoc3)[C@H]2C1` ?
Output: active

Task: Hello, I am checking results. What call was entered for `COc1cccc(OCC(=O)NN=C2c3ccccc3-c3ccccc32)c1` ?
Output: active

Task: Hello, I am checking results. What call was entered for `COc1ccccc1NC(=O)c1sc2ncn(Cc3ccccc3C)c(=O)c2c1C` ?
Output: active

Task: Hello, I am checking results. What call was entered for `CCCn1c(=O)c2[nH]c(-c3ccc(OCC(=O)NCCN)cc3)nc2n(CCC)c1=O` ?
Output: active

Task: Hello, I am checking results. What call was entered for `COc1cccc(-c2nc(N(C)Cc3ccco3)c3ccccc3n2)c1` ?
Output: active

Task: Hello, I am checking results. What call was entered for `Cc1nc(NC(=O)c2ccccc2)sc1-c1csc(Nc2ccc(F)cc2)n1` ?
Output: active

Task: Hello, I am checking results. What call was entered for CCN1CCN(C(c2ccccn2)c2c(NC(=O)c3ccccc3)sc(C)c2C)CC1 (stereo not drawn) ?
Output: active

Task: Hello, I am checking results. What call was entered for `Cc1nc(NC(=O)c2ccccc2)sc1-c1csc(Nc2ccc(Cl)cc2Cl)n1` ?
Output: active

Task: Hello, I am checking results. What call was entered for `Cc1cccc2c1OCC/C2=N\NC(=O)COc1ccccc1Cl` ?
Output: inactive

Task: Hello, I am checking results. What call was entered for CN1CCC2(CC1)C1CN(C)CC=C1C(C#N)=C(N)C2(C#N)C#N (stereo not drawn) ?
Output: inactive

Task: Hello, I am checking results. What call was entered for `CCC(=O)Nc1ccc(NC(=O)CSc2nnnn2-c2cccnc2)cc1C` ?
Output: active

###

# Measurement target: Cytochrome P450 3A4 (Homo sapiens)
# Assay details: Cytochrome panel assay with activity outcomes
# Test parameters: recombinant CYP, pro-luciferin dealkylation, luminescence, p450-cyp3a4; series mostly up to 57.1 µM
The whole screen tested about 16,000 compounds, of which about 5,100 (32%) were called active. Inconclusive results (about 25%) are left out. Calls follow the shape of the dose curve; as a rule, active = well fitted curve in the direction sought with a large enough effect; inconclusive = small, poorly fitted or top-dose-only effect, or effect the other way; inactive = no such curve, though single readings can be large or run the other way. Some of the results follow.
One label from this list, please: t (active), f (inactive)

Cc1cc(C)c2c(N)c3ccccc3nc2n1 : f
COc1ccccc1CN1CCC2(CC1)CCN(C(=O)c1c(C)noc1C)CC2 : f
Cc1ccc2c(c1)N(CCC(=O)NCc1cccnc1)C(=O)CO2 : t
NS(=O)(=O)c1cc2c(cc1Cl)N[C@@H](CC1CCCC1)NS2(=O)=O : f
Cc1noc(C)c1C(=O)N1CCC2(CCN(Cc3cc(C(F)(F)F)cc(C(F)(F)F)c3)CC2)CC1 : f

Task: Hello, I am checking results. What call was entered for `COC(=O)c1c(-c2ccccc2)csc1NC(=O)CSc1ncnc2sc(C)c(C)c12` ?
Output: t

Task: Hello, I am checking results. What call was entered for `Cc1ccc(C(=O)N/N=C/c2sc(=O)n(Cc3cccc(C(=O)O)c3)c2Cl)cc1` ?
Output: f

###

# Measurement target: Cytochrome P450 3A4 (Homo sapiens)
# Assay details: Cytochrome panel assay with activity outcomes
# Test parameters: recombinant CYP, pro-luciferin dealkylation, luminescence, p450-cyp3a4; series mostly up to 57.1 µM
Out of some 16,000 compounds screened, about 5,100 (32%) were called active. Roughly 25% stayed inconclusive and do not appear here. Calls come from the whole dose curve; as a rule, active = well fitted curve in the direction sought with a large enough effect; inconclusive = small, poorly fitted or top-dose-only effect, or effect the other way; inactive = no such curve, though single readings can be large or run the other way. Some of the results follow.
One label from this list, please: YES (active), NO (inactive)

CN1CCN(C2CC(=O)N(Cc3ccc(N4CCCC4=O)cc3)C2=O)CC1 (stereo not given) : NO

Task: Hello, I am checking results. What call was entered for O=C1CC(N(O)C2CC(=O)N(Cc3ccccc3)C2=O)C(=O)N1Cc1ccccc1 (stereo not given) ?
Output: YES

Task: Hello, I am checking results. What call was entered for `Cc1ccccc1OCCCN1CCCC1` ?
Output: NO

Task: Hello, I am checking results. What call was entered for `O=C(CCc1nc2ccccc2c(=O)[nH]1)OCC(=O)N1CCN(S(=O)(=O)c2ccccc2)CC1` ?
Output: YES

Task: Hello, I am checking results. What call was entered for `Cc1ccc(SCCCn2cnc3ccccc3c2=O)cc1` ?
Output: YES

Task: Hello, I am checking results. What call was entered for `COC(=O)c1ccccc1NC(=O)C1CCN(C(=O)c2ccc(OC)cc2)CC1` ?
Output: YES

Task: Hello, I am checking results. What call was entered for `CCN(CCO)Cc1csc2cccc(Br)c12` ?
Output: NO

Task: Hello, I am checking results. What call was entered for `COc1cccc(Nc2ncc3nc(C)c(=O)n(CCC#N)c3n2)c1` ?
Output: YES

Task: Hello, I am checking results. What call was entered for `CC(=O)NCCNc1ncnc2ccc(-c3ccccc3Cl)cc12` ?
Output: YES

Task: Hello, I am checking results. What call was entered for `O=C(CSc1nnc(-c2cccc(S(=O)(=O)N3CCOCC3)c2)n1C1CCCCCC1)NCc1ccccc1` ?
Output: YES

Task: Hello, I am checking results. What call was entered for C=CCSc1nnc2c(n1)OC(c1c(C)[nH]n(-c3ccccc3)c1=O)Nc1ccccc1-2 (stereo not given) ?
Output: YES

Task: Hello, I am checking results. What call was entered for `COc1ccc(C(=O)N2CCC3(CCN(C)CC3)CC2)cc1` ?
Output: NO

Task: Hello, I am checking results. What call was entered for Clc1ccc(-c2csc(N3CCC(c4ccccc4)C3)n2)cc1 (stereo not given) ?
Output: NO

Task: Hello, I am checking results. What call was entered for `NC(N)=NC(N)=Nc1ccccc1` ?
Output: NO

Task: Hello, I am checking results. What call was entered for COc1cc2c(cc1OC)C(C(=O)Nc1ccc3c(c1)OCCO3)C(c1cccnc1)N(C)C2=O (stereo not given) ?
Output: YES

Task: Hello, I am checking results. What call was entered for `Cc1noc(NS(=O)(=O)c2ccc(N/C=C/C(=O)c3ccc4c(c3)OCO4)cc2)c1C` ?
Output: YES

Task: Hello, I am checking results. What call was entered for `COc1ccc(C(=O)NC2CCN(C(=S)Nc3cccc(C)c3)CC2)cc1` ?
Output: YES

Task: Hello, I am checking results. What call was entered for Cc1ccc(CNC(=O)C2CC(c3ccccc3[N+](=O)[O-])=NO2)o1 (stereo not given) ?
Output: NO

Task: Hello, I am checking results. What call was entered for `COC(Cc1nnc(SC)n1-c1ccccc1)OC` ?
Output: NO

Task: Hello, I am checking results. What call was entered for `Cc1ccc(C)c(NC(=O)c2ncn[nH]2)c1` ?
Output: YES

Task: Hello, I am checking results. What call was entered for `COc1cccc(Cn2c(=O)cnc3cnc(Nc4cccc(OC)c4)nc32)c1` ?
Output: YES

Task: Hello, I am checking results. What call was entered for `COc1ccc(C(=O)/C=C2/c3ccccc3CC(C)(C)N2C)cc1` ?
Output: YES

Task: Hello, I am checking results. What call was entered for `COc1cccc(Nc2ncc3nc(-c4cccs4)c(=O)n(CCC#N)c3n2)c1` ?
Output: YES

Task: Hello, I am checking results. What call was entered for `CC(C)CNC(=S)N1CCN(C)CC1` ?
Output: NO

Task: Hello, I am checking results. What call was entered for `O=C(CSc1nc2ccccc2c(=O)n1NC(=O)c1ccccc1)c1ccc(Cl)cc1` ?
Output: YES

Task: Hello, I am checking results. What call was entered for `CCOC(=O)c1c(NC(C)=O)sc2c(OC)cccc12` ?
Output: YES

Task: Hello, I am checking results. What call was entered for `COCC(=O)Nc1c(I)c(C(=O)NC[C@@H](O)CO)c(I)c(C(=O)N(C)C[C@@H](O)CO)c1I` ?
Output: NO
